# collection of pKi values tested on 5-hydroxytryptamine receptor 6 (Homo sapiens)
# Sequence (P50406 whole entry): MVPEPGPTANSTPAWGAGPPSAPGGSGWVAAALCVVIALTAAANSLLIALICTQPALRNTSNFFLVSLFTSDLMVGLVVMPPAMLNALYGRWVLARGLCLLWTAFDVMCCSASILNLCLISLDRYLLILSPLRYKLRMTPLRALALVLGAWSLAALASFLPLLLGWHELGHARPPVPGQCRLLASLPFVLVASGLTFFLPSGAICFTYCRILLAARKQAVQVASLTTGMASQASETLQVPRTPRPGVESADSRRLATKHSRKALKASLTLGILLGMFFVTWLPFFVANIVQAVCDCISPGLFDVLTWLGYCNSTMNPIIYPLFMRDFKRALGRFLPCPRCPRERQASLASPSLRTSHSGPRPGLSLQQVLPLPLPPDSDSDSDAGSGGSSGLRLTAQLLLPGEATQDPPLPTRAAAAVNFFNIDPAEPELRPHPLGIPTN
Answers are plain numbers, as −log10 of the molar value.

O=S(=O)(c1ccccc1)n1ccc2ccc(N3CCN4CCCCC4C3)cc21 (centres undefined) :: 8.24
O=S(=O)(c1cccc2ccccc12)n1ccc2ccc(C3(O)CCN4CCCC4C3)cc21 (centres undefined) :: 8.33
O=S(=O)(c1cccc2ccccc12)n1ccc2ccc(N3CCN4CCCCC4C3)cc21 (centres undefined) :: 8.77

Okay, next one:
**Q:** Give 5-hydroxytryptamine receptor 6 (Homo sapiens) pKi for Cc1ccc(S(=O)(=O)n2ccc3ccc(N4CCN5CCCCC5C4)cc32)cc1 (centres undefined)
**A:** 8.31
